Assay system: G-protein coupled receptor 6 (Homo sapiens, UniProt P46095)
Sequence (P46095 whole entry): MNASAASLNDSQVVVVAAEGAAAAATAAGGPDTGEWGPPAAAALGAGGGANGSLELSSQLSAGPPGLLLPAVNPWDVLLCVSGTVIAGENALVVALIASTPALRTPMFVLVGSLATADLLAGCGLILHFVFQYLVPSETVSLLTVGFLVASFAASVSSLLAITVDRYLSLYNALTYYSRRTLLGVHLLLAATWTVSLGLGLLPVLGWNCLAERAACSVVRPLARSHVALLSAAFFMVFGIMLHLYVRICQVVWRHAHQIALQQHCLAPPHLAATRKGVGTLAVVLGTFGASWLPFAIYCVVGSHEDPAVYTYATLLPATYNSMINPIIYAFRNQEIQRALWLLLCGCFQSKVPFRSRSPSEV
Assay protocol: Activity at GPR6 (unknown origin) expressed in CHOK1 cells assessed as inhibition of constitutive cAMP activity incubated for 45 mins by HTRF based cAMP detection assay
Readout name: IC50 (nM)

Please review the following examples before continuing.
INSERT INTO results (input_smiles, observed_result) VALUES
  ('Cc1cc2nc(NC3CC3)c(N3CCC([C@@H](F)c4ccc(F)cc4F)CC3)nc2cn1', 6),
  ('COc1cc2nc(NC3CC3)c(N3CCC(Cc4ccc(F)cc4F)CC3)nc2cn1', 29);

1 = O=C(c1cccc(Cl)c1)C1CCN(c2nc3cnccc3nc2NC2CC2)CC1
2 = Fc1ccc(F)c(OC2CCN(c3nc4cnccc4nc3NC3CC3)CC2)c1
3 = Fc1ccc(F)c(CN2CCN(c3nc4cnccc4nc3NC3CC3)CC2)c1
4 = CN(C)C(=O)c1cc2nc(NC3CC3)c(N3CCC([C@H](F)c4ccc(F)cc4F)CC3)nc2cn1
5 = COc1ccc(OC2CCN(c3nc4cnncc4nc3NC3CC3)CC2)c(F)c1
Lookup: Sort by IC50, descending. Record the ranking as a list of labels in the requested order.
Found: 1, 2, 3, 5, 4
(1: 11000 nM, 2: 1100 nM, 3: 120 nM, 5: 20 nM, 4: 10 nM)

A = Fc1ccc(CN2CCN(c3nc4ccncc4nc3NCC(F)F)CC2)c(F)c1
B = Cc1nccc2nc(NC3CC3)c(N3CCC(C(F)(F)c4cc(F)ccc4F)CC3)nc12
C = CC(C)Nc1nc2cc(C#N)ncc2nc1N1CCC(C(=O)c2cc(F)cc(F)c2)CC1
Lookup: Sort entries by IC50 from minimum to maximum value. Record the ranking as a list of labels in the requested order.
Found: C, B, A
(C: 28 nM, B: 45 nM, A: 230 nM)

---

Assay system: G-protein coupled receptor 6 (Homo sapiens)
Assay protocol: Activity at GPR6 (unknown origin) expressed in CHOK1 cells assessed as inhibition of constitutive cAMP activity incubated for 45 mins by HTRF based cAMP detection assay
pIC50: −log10 of the molar value.
Readout name: pIC50

Please review the following examples before continuing.
INSERT INTO results (molecule, observed_result) VALUES
  ('Cc1ccc(S(=O)(=O)N2CCN(c3nc4cc(C#N)ccc4nc3NC3CC3)CC2)cc1', 5.32),
  ('Clc1ccc(Cl)c(CN2CCN(c3nc4cccc(Br)c4nc3NC3CC3)CC2)c1', 5.79),
  ('Fc1ccc(CC2CCN(c3nc4cnc(Cl)cc4nc3NC3CC3)CC2)c(F)c1', 7.51);

1 = COc1ccccc1C(=O)C1CCN(c2nc3cnccc3nc2NC2CC2)CC1
2 = O=S(=O)(c1ccccc1)N1CCN(c2nc3ccccc3nc2Nc2cccnc2)CC1
3 = CC(C)(C)Nc1nc2cc(C#N)ncc2nc1N1CCC(Oc2ccc(F)cc2F)CC1
4 = O=C(c1cc2nc(NC3CC3)c(N3CCC([C@@H](F)c4ccc(F)cc4F)CC3)nc2cn1)N1CCC1F (stereo partly specified)
Lookup: Sort by pIC50, descending. Record the ranking as a list of labels in the requested order.
Found: 4, 3, 1, 2
(4: 7.59, 3: 6.27, 1: 5.72, 2: 5.33)

---

Assay system: G-protein coupled receptor 6 (Homo sapiens)
Assay protocol: Activity at GPR6 (unknown origin) expressed in CHOK1 cells assessed as inhibition of constitutive cAMP activity incubated for 45 mins by HTRF based cAMP detection assay
Readout name: IC50 (nM)

Please review the following examples before continuing.
INSERT INTO assay_data (molecule, readout_name, observed_result) VALUES
  ('O=C(c1ccccc1Cl)C1CCN(c2nc3cnccc3nc2NC2CC2)CC1', 'IC50', 67),
  ('N#Cc1ccc2nc(NC3CC3)c(N3CCN(S(=O)(=O)c4ccccc4F)CC3)nc2c1', 'IC50', 4590),
  ('Cc1ccc(C)c(CN2CCN(c3nc4cnccc4nc3NC3CC3)CC2)c1', 'IC50', 380),
  ('Fc1cnc(Cl)c(CN2CCN(c3nc4ccccc4nc3NC3CC3)CC2)c1', 'IC50', 20400),
  ('O=C(c1c(F)cc(Cl)cc1F)C1CCN(c2nc3cnccc3nc2NC2CC2)CC1', 'IC50', 200);

A = CC(C)Nc1nc2cc(C(=O)N(C)C)ncc2nc1N1CCC(Oc2ccc(Cl)cc2F)CC1
B = Cc1cc(CN2CCN(c3nc4ccccc4nc3NC3CC3)CC2)no1
C = N#Cc1cccc2nc(N3CCN(Cc4cc(Cl)ccc4Cl)CC3)c(NC3CC3)nc12
D = N#Cc1ccc(Cl)c(C(=O)C2CCN(c3nc4cnc(Cl)cc4nc3NC3CC3)CC2)c1
E = Fc1ccc(C(F)C2CCN(c3nc4cnc(Br)cc4nc3NC3CC3)CC2)c(F)c1 (configuration not stated)
Lookup: Sort entries by IC50 from minimum to maximum value. Record the ranking as a list of labels in the requested order.
Found: A, E, D, C, B
(A: 6 nM, E: 29 nM, D: 89 nM, C: 1490 nM, B: 105000 nM)

Data provenance: ChEMBL document CHEMBL3714749
